Value source: patent US20230235004A1

tgt: T1, mouse MAdCAM expressed on cells (mouse, UniProt Q61826 22-405)
T1 construct: whole, on cells
T1 sequence (looked up): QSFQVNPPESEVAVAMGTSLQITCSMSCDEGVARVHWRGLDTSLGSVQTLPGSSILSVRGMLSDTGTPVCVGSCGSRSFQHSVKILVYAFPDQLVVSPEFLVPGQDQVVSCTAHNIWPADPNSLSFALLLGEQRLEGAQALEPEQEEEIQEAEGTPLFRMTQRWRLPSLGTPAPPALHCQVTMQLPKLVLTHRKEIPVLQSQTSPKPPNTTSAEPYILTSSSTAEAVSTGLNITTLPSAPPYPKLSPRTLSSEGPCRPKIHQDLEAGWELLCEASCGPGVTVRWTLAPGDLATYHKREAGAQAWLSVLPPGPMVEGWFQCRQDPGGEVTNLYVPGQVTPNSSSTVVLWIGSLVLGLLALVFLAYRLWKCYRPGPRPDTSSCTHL
assay.explanation: cell binding
outcome.measure: binding result

binder="MAdCAM Antibody Table 2 clone 8 (antibody, V domains shown, IgG format) VH: QVQLVQSGAEVKKPGASVKVSCKASGYTFTGYHIHWVRQAPGQGLEWMGIINPSGGSTIYAQKFQGRVTMTRDTSTSTVYMELSSLRSEDTAVYYCAKDWSSWYLGPFDYWGQGTLVTVSS VL: DIQMTQSPSSLSASVGDRVTITCRASQNISSSLNWYQQKPGKAPKLLIYAASSLQSGVPSRFSGSGSGTDFTLTISSLQPEDFATYYCQQSYTTPYTFGQGTKVEIK" data_value=binds
binder="MAdCAM Antibody Table 2 clone 65 (antibody, V domains shown, IgG format) VH: QVQLVQSGAEVKKPGASVKVSCKASGYTFTSYDINWVRQAPGQGLEWMGWMNPNSGNTGYAQKFQGRVTMTRDTSTSTVYMELSSLRSEDTAVYYCAKDSDYSNLLWDYWGQGTLVTVSS VL: DIQMTQSPSSLSASVGDRVTITCRASQDITNDLGWYQQKPGKAPKLLIYQASSLESGVPSRFSGSGSGTDFTLTISSLQPEDFATYYCQQSYTIPLTFGQGTKVEIK" data_value="no binding"
binder="MAdCAM Antibody Table 2 clone 35 (antibody, V domains shown, IgG format) VH: QVQLVQSGAEVKKPGASVKVSCKASGYTFTGYYIHWVRQAPGQGLEWMGWMNPNSGNTGYAQKFQGRVTMTRDTSTSTVYMELSSLRSEDTAVYYCARDPGFLGYSSGGSSYDGWFDPWGQGTLVTVSS VL: DIQMTQSPSSLSASVGDRVTITCRASQSISSYLHWYQQKPGKAPKLLIYAASSLQSGVPSRFSGSGSGTDFTLTISSLQPEDFATYYCQQSYTAPYTFGQGTKLEIK" data_value="no binding"
